# System: Human PDE1A, 2A3, 3A, 4D2, 5A1, 6AB, 7B, 8A1, 9A2, and 11A4 enzymes
# protocol: PDE family enzyme inhibition selectivity assay (SPA)
# Format: biochemical
# condition info: ratio of IC50 for each PDE other than PDE10A to IC50 for PDE10A
Quick reference for Selectivity over other PDEs among some compounds

>>> experimental_value("[2H]C([2H])(F)Oc1cn(-c2ccc(C3CCOCC3)cc2F)nc(-c2ccnn2-c2ccccc2)c1=O [Reference Example 122]")
">1000-fold"
>>> experimental_value("COc1cn(-c2ccc(C3CCOCC3)cc2F)nc(-c2ccnn2-c2ccccc2)c1=O [Reference Example 16]")
">1000-fold"
>>> experimental_value("COc1cn(-c2ccc(N3CC(F)(F)C3)cc2F)nc(-c2ccnn2-c2ccccc2)c1=O [Reference Example 18]")
">1000-fold"

// moving on: another record for Selectivity over other PDEs
Exam item: Which Selectivity over other PDEs value belongs to [2H]C([2H])(F)C([2H])([2H])Oc1cn(-c2ccc(C3CCOCC3)cc2F)nc(-c2ccnn2-c2ccccc2)c1=O [Reference Example 123] ?
Marked response: >100-fold

---

pIC50, Human PDE10A enzyme (Homo sapiens (Human), UniProt Q9Y233): measured values
pIC50: −log10 of the molar value.

Study these solved cases before continuing.
>>> experimental_value("[2H]C([2H])(F)Oc1cn(-c2ccc(C3CCOCC3)cc2F)nc(-c2ccnn2-c2ccccc2)c1=O [Reference Example 122]")
"> 8.00"
>>> experimental_value("COc1cn(-c2ccc(N3CC(F)(F)C3)cc2F)nc(-c2ccnn2-c2ccccc2)c1=O [Reference Example 18]")
"> 9.00"

Exam item: Any idea what pIC50 came out for [2H]C([2H])(F)C([2H])([2H])Oc1cn(-c2ccc(C3CCOCC3)cc2F)nc(-c2ccnn2-c2ccccc2)c1=O [Reference Example 123] on Human PDE10A enzyme (Homo sapiens (Human), UniProt Q9Y233)?
Marked response: > 8.00

Exam item: Any idea what pIC50 came out for COc1cn(-c2ccc(C3CCOCC3)cc2F)nc(-c2ccnn2-c2ccccc2)c1=O [Reference Example 16] on Human PDE10A enzyme (Homo sapiens (Human), UniProt Q9Y233)?
Marked response: > 9.00
